Record form. Attribute: Hydrolytic activity, Specific activity. Fill in for each entry.
# TARGET: Candida antarctica lipase CALB (Moesziomyces antarcticus, UniProt P41365)
# Construct: purchased Sigma-Aldrich Co., Ltd
# Sequence (P41365 26-342): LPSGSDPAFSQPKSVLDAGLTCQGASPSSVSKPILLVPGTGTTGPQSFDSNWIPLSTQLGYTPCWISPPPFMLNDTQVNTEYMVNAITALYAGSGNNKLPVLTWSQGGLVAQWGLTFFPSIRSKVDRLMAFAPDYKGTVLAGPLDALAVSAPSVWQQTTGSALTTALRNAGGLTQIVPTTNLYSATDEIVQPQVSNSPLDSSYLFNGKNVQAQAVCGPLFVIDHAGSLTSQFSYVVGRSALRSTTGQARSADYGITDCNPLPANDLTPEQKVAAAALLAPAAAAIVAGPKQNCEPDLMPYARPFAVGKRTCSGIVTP
# METHOD SUMMARY: Hydrolytic activity of surfactant-treated lipase CALB using pNPP as substrate
# Format: biochemical
# COND: surfactant 10 mM, protein 0.12 mg·mL^−1
One number for each entry, in U · mg^−1.

Example entries begin here.
compound="CCCCCCCCCCCCCC(=O)OCC(O)COP(=O)([O-])OCC[N+](C)(C)C (stereo not drawn)" readout_unit="U · mg^−1" test_result=0.54
compound=C[C@H](CCC(=O)NCCC[N+](C)(C)CCCS(=O)(=O)[O-])[C@H]1CC[C@H]2[C@@H]3[C@H](O)C[C@@H]4C[C@H](O)CC[C@]4(C)[C@H]3C[C@H](O)[C@]12C readout_unit="U · mg^−1" test_result=1.6
compound=CCCCCC(=O)OC[C@H](COP(=O)([O-])OCC[N+](C)(C)C)OC(=O)CCCCC readout_unit="U · mg^−1" test_result=0.98
compound="CCCCCCCCCCCCCCCC[N+](C)(C)C.[Br-] [CTAB, hexadecyl trimethyl ammonium bromide]" readout_unit="U · mg^−1" test_result=0

// batch mode: one Hydrolytic activity, Specific activity value per listed entry
1. CCCCCCCCCCCCO[C@@H]1O[C@H](CO)[C@@H](O[C@H]2O[C@H](CO)[C@@H](O)[C@H](O)[C@H]2O)[C@H](O)[C@H]1O [DDM, n-dodecyl-ß-D-maltopyranoside]
2. CCCCCCCCCCCCOCCOCCOCCOCCOCCOCCOCCOCCO

Response line:
1. 0
2. 0

* * *

# TARGET: Pseudomonas cepacia lipase PCL (Burkholderia cepacia, UniProt P22088)
# Construct: purchased Sigma-Aldrich Co., Ltd
# Sequence (P22088 45-364): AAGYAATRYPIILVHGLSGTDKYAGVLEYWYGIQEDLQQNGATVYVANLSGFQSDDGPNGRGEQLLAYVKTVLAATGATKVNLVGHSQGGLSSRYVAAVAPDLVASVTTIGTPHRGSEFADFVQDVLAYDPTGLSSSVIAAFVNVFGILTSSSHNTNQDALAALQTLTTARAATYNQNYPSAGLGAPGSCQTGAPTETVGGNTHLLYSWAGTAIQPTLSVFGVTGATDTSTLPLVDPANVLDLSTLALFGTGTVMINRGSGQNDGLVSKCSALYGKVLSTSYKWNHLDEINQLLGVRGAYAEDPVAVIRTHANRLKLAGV
# METHOD SUMMARY: Hydrolytic activity of surfactant-treated lipase PCL using pNPP as substrate
# Assay type: biochemical
# COND: surfactant 10 mM, protein 0.2 mg·mL^−1
Record form. Attribute: Hydrolytic activity, Specific activity. Fill in for each entry.
Answers are plain numbers, in U · mg^−1.

Example entries begin here.
compound="CCCCCCCCCCCCCC(=O)OCC(O)COP(=O)([O-])OCC[N+](C)(C)C (stereo not drawn)" readout_unit="U · mg^−1" test_result=321.8
compound=C[C@H](CCC(=O)NCCC[N+](C)(C)CCCS(=O)(=O)[O-])[C@H]1CC[C@H]2[C@@H]3[C@H](O)C[C@@H]4C[C@H](O)CC[C@]4(C)[C@H]3C[C@H](O)[C@]12C readout_unit="U · mg^−1" test_result=248.0
compound=CCCCCC(=O)OC[C@H](COP(=O)([O-])OCC[N+](C)(C)C)OC(=O)CCCCC readout_unit="U · mg^−1" test_result=308.2
compound="CCCCCCCCCCCCO[C@@H]1O[C@H](CO)[C@@H](O[C@H]2O[C@H](CO)[C@@H](O)[C@H](O)[C@H]2O)[C@H](O)[C@H]1O [DDM, n-dodecyl-ß-D-maltopyranoside]" readout_unit="U · mg^−1" test_result=327.7
compound=CCCCCCCCCCCCOCCOCCOCCOCCOCCOCCOCCOCCO readout_unit="U · mg^−1" test_result=281.1

For the next question, use this compound.
Prompt line: For Pseudomonas cepacia lipase PCL (Burkholderia cepacia, UniProt P22088), provide Hydrolytic activity, Specific activity of CCCCCCCCCCCCCCCC[N+](C)(C)C.[Br-] [CTAB, hexadecyl trimethyl ammonium bromide] please.
Response line: 75.5

* * *

# TARGET: Candida antarctica lipase CALB (Moesziomyces antarcticus)
# Construct: purchased Sigma-Aldrich Co., Ltd
# METHOD SUMMARY: Hydrolytic activity of surfactant-treated lipase CALB using pNPP as substrate
# Format: biochemical
# COND: surfactant 10 mM, protein 0.12 mg·mL^−1
PROPERTY MEASURED: Hydrolytic activity, Total recovery (%)
Give bare numbers, in %.

molecule="CCCCCCCCCCCCCCCC[N+](C)(C)C.[Br-] [CTAB, hexadecyl trimethyl ammonium bromide]" test_result=0

// batch mode: one Hydrolytic activity, Total recovery value per listed entry
1. CCCCCC(=O)OC[C@H](COP(=O)([O-])OCC[N+](C)(C)C)OC(=O)CCCCC
2. C[C@H](CCC(=O)NCCC[N+](C)(C)CCCS(=O)(=O)[O-])[C@H]1CC[C@H]2[C@@H]3[C@H](O)C[C@@H]4C[C@H](O)CC[C@]4(C)[C@H]3C[C@H](O)[C@]12C
3. CCCCCCCCCCCCCC(=O)OCC(O)COP(=O)([O-])OCC[N+](C)(C)C (stereo not drawn)
4. CCCCCCCCCCCCOCCOCCOCCOCCOCCOCCOCCOCCO
5. CCCCCCCCCCCCO[C@@H]1O[C@H](CO)[C@@H](O[C@H]2O[C@H](CO)[C@@H](O)[C@H](O)[C@H]2O)[C@H](O)[C@H]1O [DDM, n-dodecyl-ß-D-maltopyranoside]

Response line:
1. 85
2. 92
3. 38
4. 0
5. 0

* * *

# Tested on: Rhizopus chinensis lipase r27RCL
# METHOD SUMMARY: Ester synthesis activity of surfactant-treated lyophilized lipase r27RCL by GC analysis
# Format: biochemical
# COND: surfactant 10 mM, protein 0.2 mg·mL^−1
Record form. Attribute: Ester synthesis activity, Specific activity. Fill in for each entry.
One number for each entry, in U · mg^−1.

// batch mode: one Ester synthesis activity, Specific activity value per listed entry
1. CCCCCC(=O)OC[C@H](COP(=O)([O-])OCC[N+](C)(C)C)OC(=O)CCCCC
2. CCCCCCCCCCCCCCCC[N+](C)(C)C.[Br-] [CTAB, hexadecyl trimethyl ammonium bromide]

Response line:
1: 15.9; 2: 0

* * *

Record form. Attribute: Ester synthesis activity, Specific activity. Fill in for each entry.
# System: Rhizopus chinensis lipase r27RCL
# METHOD SUMMARY: Ester synthesis activity of surfactant-treated lyophilized lipase r27RCL by GC analysis
# Format: biochemical
# COND: surfactant 10 mM, protein 0.2 mg·mL^−1
State the result as a value with its unit after it.

Example entries begin here.
compound=CCCCCCCCCCCCOCCOCCOCCOCCOCCOCCOCCOCCO target="Rhizopus chinensis lipase r27RCL" test_result="22.2 U · mg^−1"
compound=C[C@H](CCC(=O)NCCC[N+](C)(C)CCCS(=O)(=O)[O-])[C@H]1CC[C@H]2[C@@H]3[C@H](O)C[C@@H]4C[C@H](O)CC[C@]4(C)[C@H]3C[C@H](O)[C@]12C target="Rhizopus chinensis lipase r27RCL" test_result="13.0 U · mg^−1"
compound="CCCCCCCCCCCCCC(=O)OCC(O)COP(=O)([O-])OCC[N+](C)(C)C (stereo not shown)" target="Rhizopus chinensis lipase r27RCL" test_result="47.6 U · mg^−1"

Prompt line: For Rhizopus chinensis lipase r27RCL, provide Ester synthesis activity, Specific activity of CCCCCCCCCCCCO[C@@H]1O[C@H](CO)[C@@H](O[C@H]2O[C@H](CO)[C@@H](O)[C@H](O)[C@H]2O)[C@H](O)[C@H]1O [DDM, n-dodecyl-ß-D-maltopyranoside] please.
Response line: 31.4 U · mg^−1
